Hello, the source for this data is paper PMC9712074, in case you need it.

- study.system: SARS-CoV-2 (WT) Spike RBD Protein (His Tag) (SARS-CoV-2 ancestral (Wuhan-Hu-1), UniProt P0DTC2)

binder	binding result
BD55-5189 (antibody, V domains shown) VH: QVQLVQSGAEVKKPGASVKVSCKASGYSFTTFYIHWLRQAPGQGLEWMGIVNVAGDTTDYAQNFQGRVTMTRDTSTGTVYMELSSLRSEDTAIYYCASPREKGYSGYDFWETTFDIWGQGTMVTVS VL: EVVMTQSPATLSVSPGERATLSCRASQSISSNLAWYQQKPGQAPRLLIYGASTRATGIPARFSGSGSGSQFTLTISSLQSEDFVVYYCQQYNNWPPIFGQGTKLEIK	binds
BD55-5170 (antibody, V domains shown) VH: QVQLVESGGGVVQPGRSLRLSCVASGFTFNTYGMHWVRQVPGKGLEWVAVISYDGSNQIYGDSVKGRFTISRDNSKNTVYLQMNGLRAEDTAVYYCATPLHDYSGYDLFDYGYAMDVWGQGTTVTVSS VL: QSVLTQPPSASGTPGQRVTVSCSGSSSNIGSDYVYWYQQFPGTAPKLLIYRNSQRPSGVPDRFSGSKSGTSASLAISGLRSEDEADYYCAAWDGSISAWVFGGGTKLTVL	binds
BD55-5276 (antibody, V domains shown) VH: EVHLEESGGGLVHPGRSLRLSCAASGFTLDEYAMHWVRRAPGKGLEWVSGISWNSGARGYADSVKGRFTISRDNAKNSLYLQMNSLRAEDTAFYYCAKDNSHGSGTAWDWLDSWGQGTLVTVSS VL: NFMLTQPHSVSESPGKTVTISCTRSSGTITNNYVQWYRQRPGSSPTTVIFEDNQRPSGVPDRFSGSIDSSSNSASLTISGLKTEDEADYYCQSHDSSNWVFGGGTKLTVL	binds
